TESTED ON: Chromo domain-containing protein 1 (Saccharomyces cerevisiae (strain ATCC 204508 / S288c) (Baker's yeast))
ASSAY NOTES: ScCHD-1 Enzyme Inhibition Assay
Format: functional
Parameters: scale not given: in the data most compounds retested in dose-response had high values
ASSAY CONTEXT: 30 µM
For each of the compounds below, state its Percent Effect.
Numbers only, in %.

Would you mind giving Percent Effect for every compound in the list below?
1. CC(C)c1nccn1C1CCCN(C(=O)c2ccc3[nH]nnc3c2)C1 (centres undefined)
2. CS(=O)(=O)NC1CCN(C(=O)NCCc2ccccc2F)CC1
3. O=C(CCCc1cn[nH]c1)N1CCOCC(O)C1 (centres undefined)
4. O=C1NC(c2ccccc2)=N[C@@]12CC[C@@H]1CN(CC3CCOCC3)C[C@@H]12
5. COC(=O)c1cccc(C(=O)N2CCCCC2CCn2ccnc2C)c1 (centres undefined)

Response line:
1. -22.9
2. -11.2
3. -3.63
4. -1.93
5. -2.11

Would you mind giving Percent Effect for every compound in the list below?
1. Cc1nnc(C(C)N2CCN(Cc3ccc(C#N)cc3)CC2)o1 (centres undefined)
2. CCOc1ccc(C#N)cc1NCC(=O)Nc1cc(C)no1

Response line:
1: 0.608; 2: -5.12

Would you mind giving Percent Effect for every compound in the list below?
1. CN(C)CCn1c(=O)oc2ccc(NC(=O)c3cc(Cl)c[nH]3)cc21
2. Cc1nc2c(c(N3CC=CC3)n1)CCN(Cc1ccoc1)CC2
3. Cc1ccc(C2CCCCCN2Cc2cn(C)nc2C)cc1 (centres undefined)
4. O=C(C1SCCc2sccc21)N1CCN(CCO)CC1 (centres undefined)

Response line:
1: -7.97; 2: 1.68; 3: -11.2; 4: -3.8

Would you mind giving Percent Effect for every compound in the list below?
1. Cc1n[nH]c(C2CN(C(=O)CCc3ccco3)CCO2)n1 (centres undefined)
2. Cc1cccc2c1cnn2CCC(=O)NCC(=O)N(C)C
3. CCc1nccn1C1CCCN(C(=O)c2ccc3[nH]c(=O)[nH]c3c2)C1 (centres undefined)
4. Cc1cc(CN2CCC(CNC(=O)c3ccc(O)c(Cl)c3)C2)[nH]n1 (centres undefined)
5. Cc1ncccc1OC1(C(=O)NCCCN2CCOCC2)CCNCC1

Response line:
1. -3.66
2. -10.3
3. -4.1
4. -0.611
5. -2.8

Would you mind giving Percent Effect for every compound in the list below?
1. Cc1ccccc1C(=O)NCc1ccc(N2CCNC(=O)C2)c(F)c1
2. CN(C)C(=O)CC1CC2(CCN(c3ncccn3)CC2)c2ccccc21 (centres undefined)
3. CCn1c(C)nnc1CN(C)C1CCN(Cc2cnc(C)cn2)C1 (centres undefined)
4. COc1ccc(C[C@H]2CN(c3nnc(C)s3)CC[C@@H]2OC)cc1
5. O=C1CC(c2ccccc2)C2(CCN(CC3CC3)CC2)N1 (centres undefined)

Response line:
1: -2.41; 2: -4.19; 3: -7; 4: 86.4; 5: -5.25

Would you mind giving Percent Effect for every compound in the list below?
1. Fc1cccc(Oc2ccc(CNCC3CNc4ccnn4C3)cn2)c1 (centres undefined)
2. OC(COCc1ccccc1Cl)CN1CC(n2cccn2)C1 (centres undefined)

Response line:
-12.1
-9.18

Would you mind giving Percent Effect for every compound in the list below?
1. O=C(Cn1c(=O)n(Cc2ccco2)c2ncccc21)Nc1ccccn1
2. COc1cc(C)sc1C(=O)N1CCC(Nc2cccnc2)CC1

Response line:
1. -0.416
2. 0.713

Would you mind giving Percent Effect for every compound in the list below?
1. COc1ccc(C)cc1S(=O)(=O)NCC(c1cccn1C)N(C)C (centres undefined)
2. CC1CCN(CCCNS(=O)(=O)c2cccc(F)c2)CC1
3. CC(=O)N(Cc1ncc(C(C)C)o1)C1CCN(Cc2ncc[nH]2)C1 (centres undefined)

Response line:
[104, -2.91, -5.05]
